Here the recorded Ratio is given for each entry.
species: Rattus norvegicus; test: Ratio of the concentration increasing time to contracture by 25% (EC25) in rat heart and concentration showing vasorelaxant potency (IC50) in rat aorta.; type: functional
Please state the value as a number alone, without comment.

1. CC1(C)Oc2ccc(C#N)cc2[C@@H](NC(=O)c2ccccc2)[C@@H]1O    393
2. Cc1ccc(N/C(=N/[C@@H]2c3cc(C#N)ccc3OC(C)(C)[C@H]2O)NC#N)cc1C    0.49
3. CC1(C)Oc2ccc(C#N)cc2[C@@H](/N=C(\NC#N)Nc2cccc(Cl)c2)[C@@H]1O    2.3
4. CC1(C)Oc2ccc(C#N)cc2[C@@H](/N=C(\NC#N)Nc2ccc([N+](=O)[O-])cc2)[C@@H]1O    20.6
5. CC1(C)Oc2ccc(C#N)cc2[C@@H](/N=C(\NC#N)Nc2ccc(Cl)cc2)[C@@H]1O    1.4

Give a short answer stating reported Ratio for CSc1cccc(N/C(=N/[C@@H]2c3cc(C#N)ccc3OC(C)(C)[C@H]2O)NC#N)c1 . 5.6

Give a short answer stating reported Ratio for Cc1ccc(N/C(=N/[C@@H]2c3cc(C#N)ccc3OC(C)(C)[C@H]2O)NC#N)cc1 . 0.6

Give a short answer stating reported Ratio for CC1(C)Oc2ccc(C#N)cc2[C@@H](/N=C(\NC#N)Nc2ccc(C(F)(F)F)cc2)[C@@H]1O . 1.4

Give a short answer stating reported Ratio for CC1(C)Oc2ccc(C#N)cc2[C@@H](N2CCN(c3ccccc3)C2=O)[C@@H]1O . 0.42

Give a short answer stating reported Ratio for CC1(C)Oc2ccc(C#N)cc2[C@@H](NC(=O)Nc2ccccn2)[C@@H]1O . 5.9

Give a short answer stating reported Ratio for CCC(C)(C)/N=C(\NC#N)N[C@@H]1c2cc(C#N)ccc2OC(C)(C)[C@H]1O . 0.7

Give a short answer stating reported Ratio for CC1(C)Oc2ccc(C#N)cc2[C@@H](N2CCCC2=O)[C@@H]1O . 278.1

Give a short answer stating reported Ratio for C/N=C(\NC#N)N[C@@H]1c2cc(C#N)ccc2OC(C)(C)[C@H]1O . 66.5

Give a short answer stating reported Ratio for CC1(C)Oc2ccc(C#N)cc2[C@@H](NC(=O)Nc2cccnc2)[C@@H]1O . 8.4

Give a short answer stating reported Ratio for CC1(C)Oc2ccc(C#N)cc2[C@@H](n2cc(C#N)c3ccccc32)[C@@H]1O . 11.5

Give a short answer stating reported Ratio for CC1(C)Oc2ccc(C#N)cc2[C@@H](/N=C(\NC#N)Nc2cccc([N+](=O)[O-])c2)[C@@H]1O . 7.5

====

organism: Rattus norvegicus; experiment: Tested for the vasorelaxant potency in methoxamine contracted rat aorta; format: functional
Test Readout: pIC50
// field semantics: pIC50 = negative decimal log of concentration (mol/L)

Solved entries (count: 3):
1. CSc1cccc(N/C(=N/[C@@H]2c3cc(C#N)ccc3OC(C)(C)[C@H]2O)NC#N)c1    5.85
2. COc1ccc(N/C(=N/[C@@H]2c3cc(C#N)ccc3OC(C)(C)[C@H]2O)NC#N)cc1    4.49
3. CC1(C)Oc2ccc(C#N)cc2[C@@H](NC(=O)Nc2ccncc2)[C@@H]1O    5.07

Give a short answer stating reported pIC50 for CSc1ccc(N/C(=N/[C@@H]2c3cc(C#N)ccc3OC(C)(C)[C@H]2O)NC#N)cc1 . 5.20

Give a short answer stating reported pIC50 for CC1(C)Oc2ccc(C#N)cc2[C@@H](/N=C(\NC#N)NNc2ccccc2)[C@@H]1O . 5.46

Give a short answer stating reported pIC50 for COC(=O)c1cccc(N/C(=N/[C@@H]2c3cc(C#N)ccc3OC(C)(C)[C@H]2O)NC#N)c1 . 5.39

Give a short answer stating reported pIC50 for CC1(C)Oc2ccc(C#N)cc2[C@@H](/N=C(\NC#N)Nc2cccc(Cl)c2)[C@@H]1O . 6.22

====

organism: Rattus norvegicus; test: Tested for the vasorelaxant potency in methoxamine contracted rat aorta; type: functional
Test Readout: IC50 (nM)
Hi! Could you send only the number? It should be in nM, unit omitted.

Solved entries (count: 8):
1. Cc1ccc(N/C(=N/[C@@H]2c3cc(C#N)ccc3OC(C)(C)[C@H]2O)NC#N)cc1    2700
2. CC1(C)Oc2ccc(C#N)cc2[C@@H](/N=C(\NC#N)NCc2ccccc2)[C@@H]1O    2400
3. CC1(C)Oc2ccc(C#N)cc2[C@@H](/N=C(\NC#N)Nc2ccc(Cl)c(Cl)c2)[C@@H]1O    4600
4. CC1(C)Oc2ccc(C#N)cc2[C@@H](/N=C(\NC#N)Nc2ccc3c(c2)CCC3)[C@@H]1O    41300
5. CC1(C)Oc2ccc(C#N)cc2[C@@H](n2cc(C#N)c3ccccc32)[C@@H]1O    2200
6. CC1(C)Oc2ccc(C#N)cc2[C@@H](/N=C(\NC#N)Nc2ccc([N+](=O)[O-])cc2)[C@@H]1O    300
7. CC1(C)Oc2ccc(C#N)cc2[C@@H](NC(=O)c2ccccc2)[C@@H]1O    30
8. CC1(C)Oc2ccc(C#N)cc2[C@@H](NC(=O)Cc2ccccc2)[C@@H]1O    1800

Give a short answer stating reported IC50 for CC1(C)Oc2ccc(C#N)cc2[C@@H](/N=C(\NC#N)Sc2ccccc2)[C@@H]1O . 4900

Give a short answer stating reported IC50 for CC(=O)c1cccc(N/C(=N/[C@@H]2c3cc(C#N)ccc3OC(C)(C)[C@H]2O)NC#N)c1 . 8400

Give a short answer stating reported IC50 for CC1(C)Oc2ccc(C#N)cc2[C@@H](/N=C(\NC#N)Nc2cccc(C(F)(F)F)c2)[C@@H]1O . 1600

Value source: ChEMBL document CHEMBL1128515
